test system: Staphylococcus aureus; assay: Antibacterial activity against methicillin-resistant Staphylococcus aureus USA 300 NRS 384 by two fold serial dilution method; type: functional
Non-standard residues stand in square brackets, D forms with d. Residues, ends and D or L forms follow the SMILES beside them. ξ: configuration not given here. Ac6c = NC1(C(=O)O)CCCCC1; ξDap = NCC(N)C(=O)O
property_label: MIC (µM)
Quick note: give the figure in µM, leave out the unit.

### Prompt Give the measured MIC of CC(=O)NCC(=O)N[C@@H](Cc1ccccc1)C(=O)NC1(C(=O)NCC(=O)NC2(C(=O)NC(CN)C(=O)NC3(C(=O)NCC(=O)NC4(C(=O)N[C@@H](Cc5ccccc5)C(=O)NC5(C(=O)NCC(=O)NC6(C(=O)NCC(=O)NC(CN)C(=O)NC7(C(=O)NC(CN)C(=O)NC(CN)C(=O)NC(CN)C(=O)NC(CN)C(N)=O)CCCCC7)CCCCC6)CCCCC5)CCCCC4)CCCCC3)CCCCC2)CCCCC1 (stereo partly specified) (Ac-GF[Ac6c]G[Ac6c][ξDap][Ac6c]G[Ac6c]F[Ac6c]G[Ac6c]G[ξDap][Ac6c][ξDap][ξDap][ξDap][ξDap]-NH2) .
### Response 6.16

====

test system: Enterococcus faecalis; assay: Antibacterial activity against Enterococcus faecalis Portland ATCC 29212 by two fold serial dilution method; type: functional; conditions: ATCC 29212 Portland
Non-standard residues stand in square brackets, D forms with d. Residues, ends and D or L forms follow the SMILES beside them. Ac6c = NC1(C(=O)O)CCCCC1
property_label: MIC (µM)
Quick note: give the figure in µM, leave out the unit.

### Prompt Could you share what MIC was measured for CC(=O)N[C@@H](CCCCN)C(=O)N[C@@H](CCCCN)C(=O)N[C@@H](CCCCN)C(=O)N[C@@H](CCCCN)C(=O)NCC(=O)N[C@@H](Cc1ccccc1)C(=O)NC1(C(=O)NCC(=O)NC2(C(=O)N[C@@H](CCCCN)C(=O)NC3(C(=O)NCC(=O)NC4(C(=O)N[C@@H](Cc5ccccc5)C(=O)NC5(C(=O)NCC(=O)NC6(C(=O)NCC(=O)N[C@@H](CCCCN)C(=O)NC7(C(N)=O)CCCCC7)CCCCC6)CCCCC5)CCCCC4)CCCCC3)CCCCC2)CCCCC1 (Ac-KKKKGF[Ac6c]G[Ac6c]K[Ac6c]G[Ac6c]F[Ac6c]G[Ac6c]GK[Ac6c]-NH2) , tested on Enterococcus faecalis?
### Response 21.9

====

system: Enterococcus faecalis; test: Antibacterial activity against Enterococcus faecalis Portland ATCC 29212 by two fold serial dilution method; assay type: functional; conditions: ATCC 29212 Portland
Non-standard residues stand in square brackets, D forms with d. Residues, ends and D or L forms follow the SMILES beside them. ξ: configuration not given here. Ac6c = NC1(C(=O)O)CCCCC1; ξOrn = NCCCC(N)C(=O)O; ξDap = NCC(N)C(=O)O
property_label: MIC (µM)
Quick note: give the figure in µM, leave out the unit.

[[record]]
compound = "CC(=O)NCC(=O)N[C@@H](Cc1ccccc1)C(=O)NC1(C(=O)NCC(=O)NC2(C(=O)NC(CCCN)C(=O)NC3(C(=O)NCC(=O)NC4(C(=O)N[C@@H](Cc5ccccc5)C(=O)NC5(C(=O)NCC(=O)NC6(C(=O)NCC(=O)NC(CCCN)C(=O)NC7(C(=O)NC(CCCN)C(=O)NC(CCCN)C(=O)NC(CCCN)C(=O)NC(CCCN)C(N)=O)CCCCC7)CCCCC6)CCCCC5)CCCCC4)CCCCC3)CCCCC2)CCCCC1 (stereo partly drawn) (Ac-GF[Ac6c]G[Ac6c][ξOrn][Ac6c]G[Ac6c]F[Ac6c]G[Ac6c]G[ξOrn][Ac6c][ξOrn][ξOrn][ξOrn][ξOrn]-NH2)"
recorded_measurement = 11.4


### Prompt Give the measured MIC of CC(=O)NCC(=O)N[C@@H](Cc1ccccc1)C(=O)NC1(C(=O)NCC(=O)NC2(C(=O)NC(CN)C(=O)NC3(C(=O)NCC(=O)NC4(C(=O)N[C@@H](Cc5ccccc5)C(=O)NC5(C(=O)NCC(=O)NC6(C(=O)NCC(=O)NC(CN)C(=O)NC7(C(=O)NC(CN)C(=O)NC(CN)C(=O)NC(CN)C(=O)NC(CN)C(N)=O)CCCCC7)CCCCC6)CCCCC5)CCCCC4)CCCCC3)CCCCC2)CCCCC1 (stereo partly drawn) (Ac-GF[Ac6c]G[Ac6c][ξDap][Ac6c]G[Ac6c]F[Ac6c]G[Ac6c]G[ξDap][Ac6c][ξDap][ξDap][ξDap][ξDap]-NH2) .
### Response 3.08

====

test system: NCI-H69; assay: Antiproliferative activity against human NCI-H69 cells after 72 hrs by Celltiter-Glo luminescent cell viability assay; type: functional, cell-based; settings: NCI-H69, 72 h
Non-standard residues stand in square brackets, D forms with d. Residues, ends and D or L forms follow the SMILES beside them. ξ: configuration not given here. Ac6c = NC1(C(=O)O)CCCCC1; ξDab = NCCC(N)C(=O)O
property_label: IC50 (nM)
Quick note: give the figure in nM, leave out the unit.

### Prompt Give the measured IC50 of CC(=O)NCC(=O)N[C@@H](Cc1ccccc1)C(=O)NC1(C(=O)NCC(=O)NC2(C(=O)NC(CCN)C(=O)NC3(C(=O)NCC(=O)NC4(C(=O)N[C@@H](Cc5ccccc5)C(=O)NC5(C(=O)NCC(=O)NC6(C(=O)NCC(=O)NC(CCN)C(=O)NC7(C(=O)NC(CCN)C(=O)NC(CCN)C(=O)NC(CCN)C(=O)NC(CCN)C(N)=O)CCCCC7)CCCCC6)CCCCC5)CCCCC4)CCCCC3)CCCCC2)CCCCC1 (some centres not stated) (Ac-GF[Ac6c]G[Ac6c][ξDab][Ac6c]G[Ac6c]F[Ac6c]G[Ac6c]G[ξDab][Ac6c][ξDab][ξDab][ξDab][ξDab]-NH2) .
### Response 1500

====

experiment: Antibacterial activity against Bacillus anthracis Ames NR-3838 by two fold serial dilution method; assay type: functional, Bacillus anthracis str. Ames
property_label: MIC (µM)
Quick note: give the figure in µM, leave out the unit.

### Prompt Give the measured MIC of CC(=O)NCC(=O)N[C@H](Cc1ccccc1)C(=O)NC1(C(=O)NCC(=O)N2C(C(=O)N[C@@H](CCCCN)C(=O)NC3(C(=O)NCC(=O)N4C(C(=O)N[C@@H](Cc5ccccc5)C(=O)NC5(C(=O)NCC(=O)N6C(C(=O)NCC(=O)N[C@@H](CCCCN)C(=O)N7C(C(=O)N[C@H](CCCCN)C(=O)N[C@H](CCCCN)C(=O)N[C@H](CCCCN)C(=O)N[C@H](CCCCN)C(N)=O)CC8CCCCC87)CC7CCCCC76)CCCCC5)CC5CCCCC54)CCCCC3)CC3CCCCC32)CCCCC1 (stereo in doubt) .
### Response 20.9

====

test system: Staphylococcus aureus; experiment: Antibacterial activity against Staphylococcus aureus Seattle 1945 ATCC 25923 by two fold serial dilution method; assay type: functional
Non-standard residues stand in square brackets, D forms with d. Residues, ends and D or L forms follow the SMILES beside them. ξ: configuration not given here. Ac6c = NC1(C(=O)O)CCCCC1; ξOrn = NCCCC(N)C(=O)O
property_label: MIC (µM)
Quick note: give the figure in µM, leave out the unit.

[[record]]
molecule = "CC(=O)N[C@@H](CCCCN)C(=O)N[C@@H](CCCCN)C(=O)N[C@@H](CCCCN)C(=O)N[C@@H](CCCCN)C(=O)NCC(=O)N[C@@H](Cc1ccccc1)C(=O)NC1(C(=O)NCC(=O)NC2(C(=O)N[C@@H](CCCCN)C(=O)NC3(C(=O)NCC(=O)NC4(C(=O)N[C@@H](Cc5ccccc5)C(=O)NC5(C(=O)NCC(=O)NC6(C(=O)NCC(=O)N[C@@H](CCCCN)C(=O)NC7(C(N)=O)CCCCC7)CCCCC6)CCCCC5)CCCCC4)CCCCC3)CCCCC2)CCCCC1 (Ac-KKKKGF[Ac6c]G[Ac6c]K[Ac6c]G[Ac6c]F[Ac6c]G[Ac6c]GK[Ac6c]-NH2)"
property_label = "MIC"
recorded_measurement = 10.9


### Prompt Give the measured MIC of CC(=O)NCC(=O)N[C@@H](Cc1ccccc1)C(=O)NC1(C(=O)NCC(=O)NC2(C(=O)NC(CCCN)C(=O)NC3(C(=O)NCC(=O)NC4(C(=O)N[C@@H](Cc5ccccc5)C(=O)NC5(C(=O)NCC(=O)NC6(C(=O)NCC(=O)NC(CCCN)C(=O)NC7(C(=O)NC(CCCN)C(=O)NC(CCCN)C(=O)NC(CCCN)C(=O)NC(CCCN)C(N)=O)CCCCC7)CCCCC6)CCCCC5)CCCCC4)CCCCC3)CCCCC2)CCCCC1 (some centres undefined) (Ac-GF[Ac6c]G[Ac6c][ξOrn][Ac6c]G[Ac6c]F[Ac6c]G[Ac6c]G[ξOrn][Ac6c][ξOrn][ξOrn][ξOrn][ξOrn]-NH2) .
### Response 5.67
